Biological target: human CD73 on the cell surface (293T/17-huCD73 cells) (human) (UniProt P21589)
Sequence (P21589 27-549): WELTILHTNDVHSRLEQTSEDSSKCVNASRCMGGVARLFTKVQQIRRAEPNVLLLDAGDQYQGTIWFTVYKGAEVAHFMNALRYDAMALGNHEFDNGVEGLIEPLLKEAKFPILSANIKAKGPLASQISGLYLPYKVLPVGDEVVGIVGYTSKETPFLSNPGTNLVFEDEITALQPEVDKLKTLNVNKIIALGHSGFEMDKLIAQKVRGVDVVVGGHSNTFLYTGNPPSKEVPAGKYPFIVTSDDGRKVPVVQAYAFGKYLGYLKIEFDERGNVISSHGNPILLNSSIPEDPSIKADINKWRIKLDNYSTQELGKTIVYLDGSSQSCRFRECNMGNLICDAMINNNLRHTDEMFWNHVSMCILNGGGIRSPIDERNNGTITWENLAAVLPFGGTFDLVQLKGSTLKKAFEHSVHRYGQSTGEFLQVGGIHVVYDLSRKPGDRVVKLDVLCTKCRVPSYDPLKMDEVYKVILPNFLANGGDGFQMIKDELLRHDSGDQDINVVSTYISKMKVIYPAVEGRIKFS
Test: cell-based or functional assay
EC50, release of IFN-γ from CD4+ T cells (ELISA of supernatant) by entry:
Give the number; pM is assumed, so skip it.

Below, each entry is followed by its recorded EC50, release of IFN-γ from CD4+ T cells (ELISA of supernatant) result.
[[record]]
binder = "JB24H3L3 (antibody, human IgG1, kappa, V domains shown) VH: QVQLVQSGAEVKKPGASVKMSCKASGYTFTDYNMHWVKQSHGKSLEWIGYIKPHNAGTTYNPKFEGRATLTVDTSASTAYMELRSLRSEDTAVYYCVRSDFLYWYFDVWGQGTTVTVSS VL: DIVMTQSPSSLSASVGDRVTITCTASSSVSSSYLHWYQQKPGSSPKLWIYSTSNLASGVPGRFSGSGSGTDYTLTISSLQPEDFATYYCHQYHRSPLTFGAGTKLEIKR"
recorded_value = 345

[[record]]
binder = "JB24H3L2 (antibody, human IgG1, kappa, V domains shown) VH: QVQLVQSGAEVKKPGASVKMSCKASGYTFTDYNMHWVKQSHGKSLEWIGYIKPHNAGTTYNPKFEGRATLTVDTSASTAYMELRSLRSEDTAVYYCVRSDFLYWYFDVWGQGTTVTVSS VL: DIQMTQSPSSLSASVGDRVTITCTASSSVSSSYLHWYQQKPGSAPKLWIYSTSNLASGVPSRFSGSGSGTDYTLTISSLQPEDFATYYCHQYHRSPLTFGAGTKLEIKR"
recorded_value = 15


Please examine the following record next.
In: Would you mind telling me what EC50, release of IFN-γ from CD4+ T cells (ELISA of supernatant) value was observed for JB94H2L1 (antibody, human IgG1, kappa, V domains shown) VH: QVQLVQSGAEVKKPGASVKVSCKASGYTFTSYWMHWVRQRPGQGLEWMGYINPSSGYTKSNQKFKDRVTLTADTSTSTAYMELSSLRSEDTAVYYCGRWLLSAWFAYWGQGTLVTVSS VL: DIQMTQSPSSLSASVGDRVTITCKASQDINTYLSWFQQKPGKAPKSLIYRSNILVDGVPSRFSGSGSGQDFTLTISSLQPEDFAIYYCLQYDDFPYTFGQGTKLEIKR ?
Out: 2
